# TARGET: CDK9/cyclin T (Homo sapiens, UniProt P50750)
# Sequence (P50750 whole entry, species assumed): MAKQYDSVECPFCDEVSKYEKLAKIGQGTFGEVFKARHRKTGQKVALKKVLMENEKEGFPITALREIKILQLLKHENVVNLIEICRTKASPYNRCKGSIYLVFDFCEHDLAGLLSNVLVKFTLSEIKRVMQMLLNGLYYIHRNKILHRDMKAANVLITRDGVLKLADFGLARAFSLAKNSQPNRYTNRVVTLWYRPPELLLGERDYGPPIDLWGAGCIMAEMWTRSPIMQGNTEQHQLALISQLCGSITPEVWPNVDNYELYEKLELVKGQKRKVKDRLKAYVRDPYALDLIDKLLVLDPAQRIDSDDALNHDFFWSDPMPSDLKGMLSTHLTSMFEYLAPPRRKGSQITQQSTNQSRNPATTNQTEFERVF
# Sequence (O60563 whole entry partner, species assumed): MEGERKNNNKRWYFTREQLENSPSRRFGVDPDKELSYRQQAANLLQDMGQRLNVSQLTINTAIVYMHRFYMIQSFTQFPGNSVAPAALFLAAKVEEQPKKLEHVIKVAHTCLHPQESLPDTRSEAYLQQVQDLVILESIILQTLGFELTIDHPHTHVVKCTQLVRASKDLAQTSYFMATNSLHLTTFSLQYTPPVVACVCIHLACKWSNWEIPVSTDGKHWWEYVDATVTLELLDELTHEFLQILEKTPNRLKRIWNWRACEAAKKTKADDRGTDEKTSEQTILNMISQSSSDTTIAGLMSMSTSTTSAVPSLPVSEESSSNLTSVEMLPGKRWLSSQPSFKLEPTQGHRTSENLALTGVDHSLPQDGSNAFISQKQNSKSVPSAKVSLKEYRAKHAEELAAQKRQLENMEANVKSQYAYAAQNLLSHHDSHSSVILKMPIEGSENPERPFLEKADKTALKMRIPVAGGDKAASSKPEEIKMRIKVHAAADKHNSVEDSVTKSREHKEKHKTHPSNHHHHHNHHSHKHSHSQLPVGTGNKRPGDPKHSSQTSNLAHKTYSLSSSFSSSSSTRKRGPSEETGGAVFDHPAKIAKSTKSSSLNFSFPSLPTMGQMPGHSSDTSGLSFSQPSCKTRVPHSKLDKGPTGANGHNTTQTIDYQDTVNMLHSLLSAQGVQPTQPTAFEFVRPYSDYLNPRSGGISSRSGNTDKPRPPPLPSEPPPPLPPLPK
# EXPERIMENT: CDK inhibition assay, CDK9/cyclin T
Doc: threshold 50 nM (exclusive). Items with IC50 beneath it return True; others return False.

{"COMPOUND": "CCCCCCCNc1nc(NCc2ccccc2)c2ncn(C(C)C)c2n1 [Compound A218]", "TARGET": "CDK9/cyclin T (Homo sapiens, UniProt P50750)", "CLASS_NAME": "False"}
{"COMPOUND": "Cc1cccc(CNc2nc(NC3CCC(N)CC3)nc3c2ncn3C(C)C)c1N (centres unmarked) [Compound 138]", "TARGET": "CDK9/cyclin T (Homo sapiens, UniProt P50750)", "CLASS_NAME": "True"}
{"COMPOUND": "CC(C)C(CO)Nc1nc(NCc2ccccc2N)c2ncn(C(C)C)c2n1 (centres unmarked) [Compound 107]", "TARGET": "CDK9/cyclin T (Homo sapiens, UniProt P50750)", "CLASS_NAME": "True"}
{"COMPOUND": "CC(C)n1cnc2c(NCc3ccccc3)nc(NCC(C)(C)O)nc21 [Compound A2148]", "TARGET": "CDK9/cyclin T (Homo sapiens, UniProt P50750)", "CLASS_NAME": "False"}
